Consider the following compounds; for each one, report its pIC50.
System: HepG2
experiment: Cytotoxicity against human HepG2 cells after 48 hrs by MTT assay
Assay type: functional, cell-based
applied.conditions: HepG2, 48 h
Answers are plain numbers, as −log10 of the molar value.

Some compounds with recorded pIC50:
* O=c1[nH]c2cc3c(cc2cc1-c1nc2ccccc2[nH]1)OCO3 | 4.59
* O=c1[nH]c2ccccc2cc1-c1nc2cc(Cl)ccc2[nH]1 | 5.07

# input What value of pIC50 has been reported for the following compound? O=c1[nH]c2cc3c(cc2cc1-c1nc2cc(F)ccc2[nH]1)OCO3
# output 4.91

====

Test system: HepG2
experiment: Cytotoxicity against human HepG2 cells after 48 hrs by MTT assay
Assay type: functional, cell-based
applied.conditions: HepG2, 48 h
endpoint.label: IC50

Some molecules with recorded IC50:
* O=c1[nH]c2cc3c(cc2cc1-c1nc2cc(Br)ccc2[nH]1)OCO3 | > 100 µM
* O=c1[nH]c2ccccc2cc1-c1nc2ccccc2[nH]1 | 29.6 µM
* COc1ccc2[nH]c(=O)c(-c3nc4cc(F)ccc4[nH]3)cc2c1 | > 100 µM
* O=c1[nH]c2ccccc2cc1-c1nc2cc([N+](=O)[O-])ccc2[nH]1 | > 100 µM
* Cc1ccc2[nH]c(=O)c(-c3nc4cc(Br)ccc4[nH]3)cc2c1 | > 100 µM
* Cc1ccc2[nH]c(=O)c(-c3nc4cc([N+](=O)[O-])ccc4[nH]3)cc2c1 | > 100 µM
* O=c1[nH]c2ccccc2cc1-c1nc2cc(Br)ccc2[nH]1 | 10.8 µM
* Cc1ccc2[nH]c(=O)c(-c3nc4cc(F)ccc4[nH]3)cc2c1 | > 100 µM
* O=c1[nH]c2ccccc2cc1-c1nc2cc(F)ccc2[nH]1 | 15.2 µM
* COc1ccc2[nH]c(=O)c(-c3nc4cc(Br)ccc4[nH]3)cc2c1 | > 100 µM

# input What value of IC50 has been reported for the following molecule? O=c1[nH]c2cc3c(cc2cc1-c1nc2cc(Cl)ccc2[nH]1)OCO3
# output 10.6 µM
